From: the supplement of paper PMC9112550

tested on: Escherichia coli TOP10; experiment: shrunken log2 fold change of peptide-encoding DNA abundance (4.5 h post-induction vs induction); higher = less antimicrobial activity (less host growth inhibition); details: time post-induction: 4.5 h; library: site-saturation at positions 5, 18, 19, 20
This listing pairs sequences with measured shrunken log2 fold change.
reported-endpoint: shrunken log2 fold change

# record-sequence, reported-endpoint, test-result
rows = [
    ("RRIRWRPPRLPRPRPRPTMWPRP", "shrunken log2 fold change", 0.615),
    ("RRIRLRPPRLPRPRPRPNPWPRP", "shrunken log2 fold change", 0.0455),
    ("RRIRSRPPRLPRPRPRPCCIPRP", "shrunken log2 fold change", -0.197),
    ("RRIRWRPPRLPRPRPRPGWFPRP", "shrunken log2 fold change", 0.249),
    ("RRIRHRPPRLPRPRPRPIWDPRP", "shrunken log2 fold change", -0.00794),
    ("RRIRFRPPRLPRPRPRPWLPPRP", "shrunken log2 fold change", -0.0149),
    ("RRIRIRPPRLPRPRPRPDWLPRP", "shrunken log2 fold change", -0.166),
    ("RRIRYRPPRLPRPRPRPFLKPRP", "shrunken log2 fold change", -0.122),
    ("RRIRKRPPRLPRPRPRPQAMPRP", "shrunken log2 fold change", 0.146),
    ("RRIRVRPPRLPRPRPRPMDKPRP", "shrunken log2 fold change", -0.278),
    ("RRIRNRPPRLPRPRPRPCFIPRP", "shrunken log2 fold change", -0.86),
    ("RRIRCRPPRLPRPRPRPRVAPRP", "shrunken log2 fold change", 0.293),
    ("RRIRMRPPRLPRPRPRPPHKPRP", "shrunken log2 fold change", 0.585),
    ("RRIRTRPPRLPRPRPRPIFKPRP", "shrunken log2 fold change", -0.128),
    ("RRIRSRPPRLPRPRPRPAVFPRP", "shrunken log2 fold change", 0.114),
    ("RRIRRRPPRLPRPRPRPVSFPRP", "shrunken log2 fold change", 0.178),
    ("RRIRIRPPRLPRPRPRPCHLPRP", "shrunken log2 fold change", -0.281),
    ("RRIRQRPPRLPRPRPRPTENPRP", "shrunken log2 fold change", 0.0631),
    ("RRIRCRPPRLPRPRPRPVTFPRP", "shrunken log2 fold change", -0.294),
    ("RRIRGRPPRLPRPRPRPFANPRP", "shrunken log2 fold change", 0.0848),
    ("RRIRERPPRLPRPRPRPQPGPRP", "shrunken log2 fold change", 0.0699),
    ("RRIRVRPPRLPRPRPRPDASPRP", "shrunken log2 fold change", 0.0719),
    ("RRIRKRPPRLPRPRPRPSIYPRP", "shrunken log2 fold change", -0.353),
    ("RRIRGRPPRLPRPRPRPCVHPRP", "shrunken log2 fold change", 0.107),
    ("RRIRGRPPRLPRPRPRPGKFPRP", "shrunken log2 fold change", 0.427),
    ("RRIRYRPPRLPRPRPRPIHWPRP", "shrunken log2 fold change", -0.182),
    ("RRIRVRPPRLPRPRPRPFTCPRP", "shrunken log2 fold change", -0.216),
    ("RRIRHRPPRLPRPRPRPTPAPRP", "shrunken log2 fold change", 0.681),
    ("RRIRFRPPRLPRPRPRPCCYPRP", "shrunken log2 fold change", -0.251),
    ("RRIRQRPPRLPRPRPRPSFSPRP", "shrunken log2 fold change", -0.443),
    ("RRIRPRPPRLPRPRPRPMTQPRP", "shrunken log2 fold change", 0.272),
    ("RRIRWRPPRLPRPRPRPNGYPRP", "shrunken log2 fold change", 0.186),
    ("RRIRHRPPRLPRPRPRPEMKPRP", "shrunken log2 fold change", -0.0143),
    ("RRIRHRPPRLPRPRPRPKIDPRP", "shrunken log2 fold change", -0.0926),
    ("RRIRNRPPRLPRPRPRPVAIPRP", "shrunken log2 fold change", -0.507),
    ("RRIRHRPPRLPRPRPRPQWIPRP", "shrunken log2 fold change", -0.031),
    ("RRIRARPPRLPRPRPRPMDLPRP", "shrunken log2 fold change", -0.292),
    ("RRIRYRPPRLPRPRPRPIQRPRP", "shrunken log2 fold change", -0.00865),
    ("RRIRRRPPRLPRPRPRPRRDPRP", "shrunken log2 fold change", 0.19),
    ("RRIRSRPPRLPRPRPRPHMDPRP", "shrunken log2 fold change", -0.427),
    ("RRIRCRPPRLPRPRPRPEKAPRP", "shrunken log2 fold change", 0.0655),
    ("RRIRYRPPRLPRPRPRPQAGPRP", "shrunken log2 fold change", 0.00284),
    ("RRIRPRPPRLPRPRPRPRDPPRP", "shrunken log2 fold change", 0.695),
    ("RRIRYRPPRLPRPRPRPWQVPRP", "shrunken log2 fold change", -0.09),
    ("RRIRLRPPRLPRPRPRPRPQPRP", "shrunken log2 fold change", 0.398),
    ("RRIRQRPPRLPRPRPRPLQEPRP", "shrunken log2 fold change", -0.129),
    ("RRIRWRPPRLPRPRPRPWWKPRP", "shrunken log2 fold change", -0.00743),
    ("RRIRGRPPRLPRPRPRPYIWPRP", "shrunken log2 fold change", -0.107),
    ("RRIRIRPPRLPRPRPRPVSGPRP", "shrunken log2 fold change", 0.0231),
    ("RRIRERPPRLPRPRPRPTPEPRP", "shrunken log2 fold change", 0.122),
    ("RRIRWRPPRLPRPRPRPSSKPRP", "shrunken log2 fold change", -0.369),
    ("RRIRNRPPRLPRPRPRPIAGPRP", "shrunken log2 fold change", -0.0235),
    ("RRIRDRPPRLPRPRPRPNHAPRP", "shrunken log2 fold change", -0.31),
    ("RRIRNRPPRLPRPRPRPHHIPRP", "shrunken log2 fold change", -0.282),
    ("RRIRRRPPRLPRPRPRPCRPPRP", "shrunken log2 fold change", 0.0965),
    ("RRIRERPPRLPRPRPRPHNWPRP", "shrunken log2 fold change", -0.363),
    ("RRIRCRPPRLPRPRPRPTGYPRP", "shrunken log2 fold change", -0.0363),
    ("RRIRTRPPRLPRPRPRPHFRPRP", "shrunken log2 fold change", -0.284),
    ("RRIRARPPRLPRPRPRPFECPRP", "shrunken log2 fold change", -0.00737),
    ("RRIRKRPPRLPRPRPRPLNNPRP", "shrunken log2 fold change", -0.0972),
    ("RRIRMRPPRLPRPRPRPKVNPRP", "shrunken log2 fold change", 0.31),
    ("RRIRWRPPRLPRPRPRPTSTPRP", "shrunken log2 fold change", 0.0842),
    ("RRIRIRPPRLPRPRPRPFYFPRP", "shrunken log2 fold change", -0.448),
]

* * *

shrunken log2 fold change: recorded values
tested on: Escherichia coli TOP10; assay: shrunken log2 fold change of peptide-encoding DNA abundance (4.5 h post-induction vs induction); higher = less antimicrobial activity (less host growth inhibition); conditions: time post-induction: 4.5 h; library: site-saturation at positions 5, 18, 19, 20;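 also: peptides expressed intracellularly from a pBAD plasmid library in pooled LB shake-flask culture, induced with 0.3% L-arabinose, DNA abundance read by NGS, three biological replicates, DESeq2 with apeglm shrinkage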

# record-sequence, shrunken log2 fold change
data = [
    ("RRIRPRPPRLPRPRPRPTGFPRP", 0.0273),
    ("RRIRWRPPRLPRPRPRPCCCPRP", 0.129),
    ("RRIRCRPPRLPRPRPRPEKDPRP", -0.0681),
    ("RRIRHRPPRLPRPRPRPKDFPRP", -0.0494),
    ("RRIRVRPPRLPRPRPRPFRLPRP", -0.267),
    ("RRIRGRPPRLPRPRPRPQKHPRP", 0.982),
    ("RRIRFRPPRLPRPRPRPTAMPRP", -0.105),
    ("RRIRSRPPRLPRPRPRPSARPRP", 0.299),
    ("RRIRSRPPRLPRPRPRPAPVPRP", 0.269),
    ("RRIRERPPRLPRPRPRPKRTPRP", 0.108),
    ("RRIRVRPPRLPRPRPRPESHPRP", -0.138),
    ("RRIRDRPPRLPRPRPRPMNVPRP", 0.0651),
    ("RRIRKRPPRLPRPRPRPEDTPRP", 0.103),
    ("RRIRNRPPRLPRPRPRPCEGPRP", 0.111),
    ("RRIRFRPPRLPRPRPRPIRKPRP", -0.0472),
]
